# Tested on: SEM cells
# Test summary: cell viability relative to DMSO control; higher = less cytotoxic
# Condition notes: RPMI 5 mM glucose + 10% dialyzed FBS; 48 h; 0.0211 µM
Property: cell viability (%)
Respond numerically; units are % and should not be typed.

Request: Can you look up cell viability on SEM cells for `OCCn1cc(-c2cnc3nnn(Cc4ccc5ncccc5c4)c3n2)cn1` ?
Result: 108

Request: Can you look up cell viability on SEM cells for `O=C(/C=C/c1ccc(O)cc1)c1ccc(O)cc1O` ?
Result: 91.9

Request: Can you look up cell viability on SEM cells for `CCOc1ccc(Cc2cc([C@@H]3O[C@H](CO)[C@@H](O)[C@H](O)[C@H]3O)ccc2Cl)cc1` ?
Result: 85.6

Request: Can you look up cell viability on SEM cells for `CNC(=O)CN1CCC(Oc2cc3c(Nc4cccc(Cl)c4F)ncnc3cc2OC)CC1` ?
Result: 141

Request: Can you look up cell viability on SEM cells for CCN1CCCC1CNC(=O)c1cc([S+](N)(=O)[O-])ccc1OC (stereo not drawn) ?
Result: 113

Request: Can you look up cell viability on SEM cells for `COc1ncc(-c2ccc3c(Nc4cc(Oc5cc(F)cc(F)c5)cc(C(=O)O)c4)c([S+](=O)([O-])NC4CC4)cnc3c2)c(OC)n1` ?
Result: 88.6

Request: Can you look up cell viability on SEM cells for `CC(C)(O)c1cc2nc(-c3cnc(N)nc3)nc(N3CCOCC3)c2s1` ?
Result: 107

Request: Can you look up cell viability on SEM cells for CCOC1=CC=CC=C1N\2C(=O)C3=C(C=CC=C3)\N=C2C(C)N4CCN(CC4)C(=O)COC5=CC=C(Cl)C=C5 (stereo not drawn) ?
Result: 116
